# system-under-test: PB1(5) (Homo sapiens)
# Construct: the fifth bromodomain of PB1 (PB1(5)); made in house
# test: Isothermal calorimetry (ITC), PB1(5) bromodomain
# Format: binding

# molecule, ΔG (kcal/mol)
data = [
    ("O=c1nc2n(c3ccccc13)CC/C2=C\\N1CCCC1 [Compound 9]", -7.577),
    ("CCN1CCN(/C=C2\\CCn3c2nc(=O)c2c(Cl)cccc23)CC1 [Compound 27]", -9.198),
    ("O=c1nc2n(c3cccc(Cl)c13)CC/C2=C\\N1CCCCC1 [Compound 24]", -9.243),
    ("CN(C)/C=C1\\CCn2c1nc(=O)c1c(Cl)cccc12 [Compound 18]", -9.195),
    ("O=c1nc2n(c3ccccc13)CC/C2=C\\N1CCCCC1 [Compound 10]", -7.926),
    ("CN1CCN(/C=C2\\CCn3c2nc(=O)c2c(Cl)cccc23)CC1 [Compound 26]", -9.272),
    ("CCC(/C=C1\\CCn2c1nc(=O)c1c(Cl)cccc12)CC [Compound 28]", -9.110),
]

---

# system-under-test: PB1(5) (Homo sapiens, UniProt Q86U86)
# Construct: the fifth bromodomain of PB1 (PB1(5)); made in house
# Sequence (Q86U86 653-774): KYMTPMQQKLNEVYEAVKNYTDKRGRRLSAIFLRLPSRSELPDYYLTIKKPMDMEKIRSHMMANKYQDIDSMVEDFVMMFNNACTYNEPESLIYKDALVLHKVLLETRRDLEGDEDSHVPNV
# test: DSF Tm shift assay, PB1(5) bromodomain
# Type: binding
# experimental-setup: 10 μM inhibitor, average of three replicates
Each record here notes measured ΔTm at 10 µM.
measurement-kind: ΔTm at 10 µM

# compound, measurement-kind, result
data = [
    ("Cc1cccc2c1c(=O)nc1n2CCC1 [Compound 16c]", "ΔTm at 10 µM", "0 °C"),
    ("O=c1nc2n(c3cccc(F)c13)CCC2 [Compound 17c]", "ΔTm at 10 µM", "-0.1 °C"),
    ("O=c1nc2n(c3ccccc13)CCC2", "ΔTm at 10 µM", "0 °C"),
    ("O=c1nc2n(c3cccc(O)c13)CCC2 [Compound 21c]", "ΔTm at 10 µM", "-0.1 °C"),
    ("COc1cccc2c1c(=O)nc1n2CCC1 [Compound 20c]", "ΔTm at 10 µM", "-0.6 °C"),
    ("O=c1nc2n(c3cccc(Cl)c13)CCC2 [Compound 18c]", "ΔTm at 10 µM", "2.6 °C"),
    ("O=c1nc2n(c3cccc(Br)c13)CCC2 [Compound 19c]", "ΔTm at 10 µM", "3.1 °C"),
]

---

Listed molecules paired with reported K × 10^6 (M^–1)
# system-under-test: PB1(5) (Homo sapiens)
# Construct: the fifth bromodomain of PB1 (PB1(5)); made in house
# test: Isothermal calorimetry (ITC), PB1(5) bromodomain
# Type: binding
# experimental-setup: 293.15 K

# molecular-string, K × 10^6 (M^–1)
records = [
    ("CN1CCN(/C=C2\\CCn3c2nc(=O)c2c(Cl)cccc23)CC1", "8.09 × 10^6 M^–1"),
    ("CCN1CCN(/C=C2\\CCn3c2nc(=O)c2c(Cl)cccc23)CC1", "7.05 × 10^6 M^–1"),
    ("O=c1nc2n(c3ccccc13)CC/C2=C\\N1CCCCC1", "0.80 × 10^6 M^–1"),
    ("O=c1nc2n(c3cccc(Cl)c13)CC/C2=C\\N1CCCCC1", "7.86 × 10^6 M^–1"),
    ("CN(C)/C=C1\\CCn2c1nc(=O)c1c(Cl)cccc12", "7.29 × 10^6 M^–1"),
    ("O=c1nc2n(c3ccccc13)CC/C2=C\\N1CCCC1", "0.44 × 10^6 M^–1"),
]
